# System: P. falciparum stage V gametocytes
# Design: BacTiter-Glo ATP luminescence viability of purified stage V gametocytes in 384-well plates, per cent inhibition versus DMSO
# Reported Conditions: 48 h, 5 µM; inhibitor
Out of some 13,000 compounds screened, about 3,200 (25%) showed an effect of 50% or more. Some of the results follow.
Assay Endpoint: % Inhibition (%)

INSERT INTO measurements (compound, assay_endpoint, unit_abbrev, assay_value) VALUES
  ('CCN(CC)CCNc1cc(C)nc(/N=C(\N)Nc2ccc(Cl)cc2)n1', '% Inhibition', '%', 81.2),
  ('CCOC(=O)N1CCN(CCCCCNc2cc(C)nc(/N=C(\N)Nc3ccc(Cl)cc3)n2)CC1', '% Inhibition', '%', 60.55),
  ('CNC(=O)c1cnc(Nc2ccc3[nH]c(=O)[nH]c3c2)nc1Nc1cccc(OC(C)C)c1', '% Inhibition', '%', -16.36),
  ('Cc1cc(N2CC=CCC2)nc(/N=C(\N)Nc2ccc(Cl)cc2)n1', '% Inhibition', '%', 30.94),
  ('CCNc1cc(C)nc(Nc2ccc(NC(=O)c3c(F)cccc3Cl)cc2)n1', '% Inhibition', '%', 3.1),
  ('COc1cc(OC)cc(C(=O)N2CCOC(CCN3CCC(c4ccccc4)CC3)(c3ccc(Cl)c(Cl)c3)C2)c1 (centres unmarked)', '% Inhibition', '%', -85.08),
  ('O=C(Nc1ccccc1)N1CCC(CN2CCOC(c3ccccc3)(c3ccccc3)C2)CC1', '% Inhibition', '%', 40.09),
  ('Cc1cc(C)c(CON2C(N)=NC(N)=NC2(C)C)cc1C', '% Inhibition', '%', -5.978),
  ('O=C(c1ccccc1)N1CCC(CN2CCOC(c3ccccc3)(c3ccccc3)C2)CC1', '% Inhibition', '%', 86.1),
  ('O=C(c1ccc(F)c(F)c1)N1CCOC(CCN2CCC(c3ccccc3)CC2)(c2ccc(Cl)c(Cl)c2)C1 (centres unmarked)', '% Inhibition', '%', -91.33),
  ('CCOc1cc(C)ccc1N1CCN(CCCCNC(=O)c2ccc(NC(=O)c3ccc(Cl)cc3)cc2)CC1', '% Inhibition', '%', 2.314),
  ('CC(=O)C1(c2ccccc2)CCN(CCC2(c3ccc(Cl)c(Cl)c3)CN(C(=O)C3CCCCC3)CCO2)CC1 (centres unmarked)', '% Inhibition', '%', -73.48),
  ('O=C(Nc1ccc(OC2CCN(Cc3ccc(F)cc3)CC2)c(Cl)c1)c1ccoc1', '% Inhibition', '%', 29.48),
  ('Cc1cc(NCCc2ccccc2)nc(/N=C(\N)Nc2ccccc2Cl)n1', '% Inhibition', '%', 92.38),
  ('Cc1cccc(Nc2nc(N)c3ccccc3n2)c1.Cl', '% Inhibition', '%', -2.53),
  ('Nc1nc(N)c2c(CCc3ccc4ccccc4c3)cccc2n1', '% Inhibition', '%', -16.21),
  ('CCOc1ccc(C(=O)N2CCOC(CCN3CCC(c4ccccc4)CC3)(c3ccc(Cl)c(Cl)c3)C2)cc1 (centres unmarked)', '% Inhibition', '%', -65.78);

The origin of these recorded values is paper PMC4552634.
